- PROTOCOL: compound activity on host-cell Toxoplasma growth – dose response (AID 1259420);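 further: host cells were HeLa; final incubation lasted 72 hours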
- MEASUREMENT_PARAMETERS: Toxoplasma gondii growth in host cells, no IFN-gamma; at 10 µM
Screen size: about 1,000 compounds; about 250 (25%) were called active. Another 31% or so got no clear call; they are omitted. These entries were drawn from the full list. Potency and affinity values are given separately.
Examples of compounds with documented max activity follow.

Worked set:
- SMI: "C=CC[C@@H]1CC=C[C@@H](C)N1C(=O)CCn1c(C)cc(C)nc1=O"
  max activity: "-10.5% (inactive)"
- SMI: "COc1ccccc1C#Cc1ccc([C@H]2[C@H](CO)N3CCCCN(C(=O)C4CCC4)C[C@@H]23)cc1"
  max activity: "11.5% (inactive)"
- SMI: "CCc1cnc(N2[C@H](C#N)[C@@H](c3ccc(C#Cc4ccccc4F)cc3)[C@H]2CO)s1"
  max activity: "8.24% (inactive)"

max activity measured on O=C(Cc1cccnc1)N1CC(=O)N2[C@H](CO)[C@H](c3ccc(C#CC4CCCCC4)cc3)[C@@H]2C1 = -8.18% (inactive)

###

- PROTOCOL: compound activity on host-cell Toxoplasma growth – dose response (AID 1259420);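 further: host cells were HeLa; final incubation lasted 72 hours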
- MEASUREMENT_PARAMETERS: Toxoplasma gondii growth in host cells, no IFN-gamma; at 19.5 µM unless noted
Hit rate of the full screen: of about 1,000 compounds, about 250 (25%) were called active. Inconclusive results (about 31%) are left out. Only a sample is shown. Potency and affinity values are given separately.
OBSERVABLE: max activity

- COMPOUND: "Cc1ccccc1S(=O)(=O)N1CCCCN2[C@H](CO)[C@H](c3ccc(C#CCN(C)C)cc3)[C@@H]2C1"
  max activity: "-9.35% [at 10 µM] (inactive)"
- COMPOUND: "CCCNC(=O)[C@@H]1[C@@H](CO)[C@@H]2Cn3c(ccc(C4=CCCCC4)c3=O)[C@@H]2N1Cc1ccccc1F"
  max activity: "15.2% (inactive)"
- COMPOUND: "Cc1cccc(-c2ccc([C@H]3[C@H]4CN(C(=O)c5ccc6c(c5)OCO6)CC(=O)N4[C@H]3CO)cc2)c1"
  max activity: "11.6% (inactive)"
- COMPOUND: "N#Cc1c(N2C[C@@H]3NCCO[C@H]3C2)c(F)cc2c(=O)c(C(=O)O)cn(C3CC3)c12"
  max activity: "9.32% [at 1.2 µM] (inactive)"

max activity measured on COc1ccc(-c2ccc([C@@H]3[C@@H](CO)N4C(=O)CN(C(=O)C5CC5)C[C@@H]34)cc2)cc1 = 19.5% [at 21 µM] (inactive)

max activity measured on Cc1nnc(N2C[C@@H](Oc3ncccc3F)[C@@H]3OCCC[C@@H]32)s1 = -11.4% [at 0.16 µM] (inactive)

max activity measured on COCCC(=O)c1cc2c(s1)CCN2Cc1cccnc1 = -10.9% [at 0.6 µM] (inactive)

max activity measured on CN(C)C(=O)c1cccc(-c2ccc(C3[C@H]4CNC[C@@H]3N4Cc3ccccc3C(F)(F)F)cc2)c1 (some centres undefined) = -11.4% (inactive)

max activity measured on COc1cccc(-c2nn(CC3CC3)c3c2[C@@H]2CN(C(=O)c4ccccc4)C[C@@H]2C3)c1 = 29.4% (inactive)

###

- PROTOCOL: compound activity on host-cell Toxoplasma growth – dose response (AID 1259420);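 further: host cells were HeLa; final incubation lasted 72 hours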
- MEASUREMENT_PARAMETERS: Toxoplasma gondii growth in host cells, no IFN-gamma; at 19.5 µM unless noted
In all, about 1,000 compounds went through this assay and about 250 (25%) were called active. Not shown: some 31% with an inconclusive outcome. These entries were drawn from the full list. Results with a measured potency or affinity are listed apart.
OBSERVABLE: max activity

- MOLECULE: "COc1ccc(CN2C[C@@H]3C[C@H](C(=O)Nc4ccccc4)[C@@H](C2)O3)cc1"
  max activity: "24.7% (inactive)"

max activity measured on C/C=C/c1ccc(C2[C@@H]3CN(Cc4cccc(OC)c4)C[C@H]2N3)cc1 (stereo not given in full) = 25.8% [at 1.2 µM] (inactive)

max activity measured on COc1cccc(S(=O)(=O)N2CCCCN3[C@@H](CO)[C@H](c4ccc(C#CCC(C)C)cc4)[C@@H]3C2)c1 = -27.2% [at 0.3 µM] (inactive)

max activity measured on CCCNC(=O)C[C@H]1CC[C@@H]2[C@H](COC[C@H](O)CN2C(=O)Nc2ccc(Cl)c(Cl)c2)O1 = 22.5% (inactive)

max activity measured on O=C(NC1CCCCC1)N1C[C@@H]2N[C@H](C1)C2c1ccc(-c2ccc(F)cc2)cc1 (stereo not given in full) = 22.3% [at 10 µM] (inactive)
